Test system: Galectin-3 (Homo sapiens, UniProt P17931, R186K)
Sequence (P17931 2-250 R186K limits assumed): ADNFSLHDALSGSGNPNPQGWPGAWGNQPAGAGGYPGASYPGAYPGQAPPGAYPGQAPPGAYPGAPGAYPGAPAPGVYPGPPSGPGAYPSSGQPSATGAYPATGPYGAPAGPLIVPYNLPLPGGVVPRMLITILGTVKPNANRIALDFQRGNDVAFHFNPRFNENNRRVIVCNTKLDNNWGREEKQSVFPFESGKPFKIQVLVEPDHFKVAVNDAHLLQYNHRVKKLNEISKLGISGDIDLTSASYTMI
Assay remarks: Competitive binding affinity to recombinant human galectin-3 R186K mutant after 5 mins in presence of fluorescent probe beta-D-galactopyranosyl(1-4)-2-acetamido-2-deoxy-beta-D-glucopyranosyl(1-3)-beta-D-galactopyranosyl(1-4)-(N1-fluorescein-5-yl-carbonylaminomethylcarbonyl)-beta-D-glucopyranosylamine by fluorescence polarization assay
Measure: Kd (µM)
Give bare numbers, in µM.

With Galectin-3 (Homo sapiens, UniProt P17931, R186K) as the test system, O=c1oc2ccccc2cc1CO[C@H]1[C@@H](O)[C@@H](CO)O[C@@H](S[C@@H]2O[C@H](CO)[C@H](O)[C@H](OCc3cc4ccccc4oc3=O)[C@H]2O)[C@@H]1O showed Kd of 110

* * *

Test system: Galectin-9 (Homo sapiens)
Sequence (O00182 whole entry): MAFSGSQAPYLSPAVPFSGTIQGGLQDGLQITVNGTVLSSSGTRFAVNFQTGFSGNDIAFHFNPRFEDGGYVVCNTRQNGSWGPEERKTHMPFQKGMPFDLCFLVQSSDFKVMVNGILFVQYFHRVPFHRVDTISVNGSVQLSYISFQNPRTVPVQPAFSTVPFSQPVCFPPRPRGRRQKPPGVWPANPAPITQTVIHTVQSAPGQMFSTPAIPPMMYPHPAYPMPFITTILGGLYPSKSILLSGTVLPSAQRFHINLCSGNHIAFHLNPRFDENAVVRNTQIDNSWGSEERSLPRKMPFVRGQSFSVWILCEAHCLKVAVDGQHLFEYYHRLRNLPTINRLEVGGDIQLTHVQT
Assay remarks: Competitive binding affinity to recombinant human galectin-9 N-terminal after 5 mins in presence of fluorescent probe 2-(fluorescein-5-yl-carbonylamino)ethyl-beta-D-galactopyranosyl(1-4)-2-acetamido-2-deoxy-beta-D-glucopyranosyl(1-3)-beta-D-galactopyranosyl(1-4)-beta-D-glucopyranoside by fluorescence polarization assay
Measure: Kd
Number first, unit second.

Summary for this molecule, COc1ccc2cc(CO[C@H]3[C@@H](O)[C@@H](CO)O[C@@H](S[C@@H]4O[C@H](CO)[C@H](O)[C@H](OCc5cc6ccc(OC)cc6oc5=O)[C@H]4O)[C@@H]3O)c(=O)oc2c1 : Kd is 8.3 µM

Summary for this molecule, O=c1oc2ccccc2cc1CO[C@H]1[C@@H](O)[C@@H](CO)O[C@@H](S[C@@H]2O[C@H](CO)[C@H](O)[C@H](OCc3cc4ccccc4oc3=O)[C@H]2O)[C@@H]1O : Kd is 1.6 µM

// switching to the query molecule
Summary for this molecule, O=c1oc2ccc(Cl)cc2cc1CO[C@H]1[C@@H](O)[C@@H](CO)O[C@@H](S[C@@H]2O[C@H](CO)[C@H](O)[C@H](OCc3cc4cc(Cl)ccc4oc3=O)[C@H]2O)[C@@H]1O : Kd is 140 µM

* * *

Test system: Galectin-2 (Homo sapiens, UniProt P05162)
Sequence (P05162 whole entry): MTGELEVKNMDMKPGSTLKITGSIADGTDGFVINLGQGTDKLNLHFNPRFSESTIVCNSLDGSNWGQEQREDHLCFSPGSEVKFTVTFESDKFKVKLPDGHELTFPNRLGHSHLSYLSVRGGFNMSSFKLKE
Assay remarks: Competitive binding affinity to recombinant human galectin-2 after 5 mins in presence of fluorescent probe ,[…]-3-[4-(fluorescein-5-yl-carbonylaminomethyl)-1H-1,2,3-triazol-1-yl]-3'-(3,5-dimethoxy-benzamido)-1,1'-sulfanediyl-di-beta-D-galactopyranoside by fluorescence polarization assay
Measure: Kd

Summary for this compound, O=c1oc2ccccc2cc1CO[C@H]1[C@@H](O)[C@@H](CO)O[C@@H](S[C@@H]2O[C@H](CO)[C@H](O)[C@H](OCc3cc4ccccc4oc3=O)[C@H]2O)[C@@H]1O : Kd is 6.9 µM

* * *

Test system: Galectin-3 (Homo sapiens, UniProt P17931, R144S)
Sequence (P17931 2-250 R144S limits assumed): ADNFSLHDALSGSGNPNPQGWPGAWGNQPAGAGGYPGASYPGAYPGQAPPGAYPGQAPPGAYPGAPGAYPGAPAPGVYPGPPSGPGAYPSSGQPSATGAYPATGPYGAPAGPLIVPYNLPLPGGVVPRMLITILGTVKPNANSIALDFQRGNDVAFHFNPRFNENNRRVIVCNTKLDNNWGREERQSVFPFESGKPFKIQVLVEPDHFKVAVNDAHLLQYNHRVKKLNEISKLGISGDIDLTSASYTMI
Assay remarks: Competitive binding affinity to recombinant human galectin-3 R144S mutant after 5 mins in presence of fluorescent probe 2-(fluorescein-5/6-yl-carbonyl)-aminoethyl 2-acetamido-2-deoxy-alpha-D-galactopyranosyl-(1-3)-[alpha-L-fucopyranosyl-(1-2)]-beta-D-galactopyranosyl-(1-4)-beta-D-glucopyranoside by fluorescence polarization assay
Measure: Kd (µM)
Give bare numbers, in µM.

Summary for this molecule, O=c1oc2ccccc2cc1CO[C@H]1[C@@H](O)[C@@H](CO)O[C@@H](S[C@@H]2O[C@H](CO)[C@H](O)[C@H](OCc3cc4ccccc4oc3=O)[C@H]2O)[C@@H]1O : Kd is 6.1

* * *

Test system: UniProt:P09382
Sequence (P09382 whole entry): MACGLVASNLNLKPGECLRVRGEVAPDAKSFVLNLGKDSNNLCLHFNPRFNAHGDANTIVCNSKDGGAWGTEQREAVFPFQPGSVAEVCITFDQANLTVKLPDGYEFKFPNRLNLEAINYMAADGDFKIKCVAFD
Assay remarks: Competitive binding affinity to recombinant human galectin-1 after 5 mins in presence of fluorescent probe 3,3'-dideoxy-3-[4-(fluorescein-5-yl-carbonylaminomethyl)-1H-1,2,3-triazol-1-yl]-3'-(3,5-dimethoxy-benzamido)-1,1'-sulfanediyl-di-beta-D-galactopyranoside by fluorescence polarization assay
Measure: pKd
Numbers only, as −log10 of the molar value.

With UniProt:P09382 as the test system, O=c1oc2ccc(Cl)cc2cc1CO[C@H]1[C@@H](O)[C@@H](CO)O[C@@H](S[C@@H]2O[C@H](CO)[C@H](O)[C@H](OCc3cc4cc(Cl)ccc4oc3=O)[C@H]2O)[C@@H]1O showed pKd of 4.68

// switching to the query compound
With UniProt:P09382 as the test system, O=c1oc2ccccc2cc1CO[C@H]1[C@@H](O)[C@@H](CO)O[C@@H](S[C@@H]2O[C@H](CO)[C@H](O)[C@H](OCc3cc4ccccc4oc3=O)[C@H]2O)[C@@H]1O showed pKd of 4.80

* * *

Test system: Galectin-3 (Homo sapiens)
Assay remarks: Competitive binding affinity to recombinant human galectin-3 after 5 mins in presence of fluorescent probe by fluorescence polarization assay
I'd appreciate it if you could supply pKd values for the items below.
Answers are plain numbers, as −log10 of the molar value.

// input: 3 molecules below; output: pKd for each
1. O=c1oc2ccccc2cc1CO[C@H]1[C@@H](O)[C@@H](CO)O[C@@H](S[C@@H]2O[C@H](CO)[C@H](O)[C@H](OCc3cc4ccccc4oc3=O)[C@H]2O)[C@@H]1O
2. O=c1oc2ccc(Cl)cc2cc1CO[C@H]1[C@@H](O)[C@@H](CO)O[C@@H](S[C@@H]2O[C@H](CO)[C@H](O)[C@H](OCc3cc4cc(Cl)ccc4oc3=O)[C@H]2O)[C@@H]1O
3. COc1ccc2cc(CO[C@H]3[C@@H](O)[C@@H](CO)O[C@@H](S[C@@H]4O[C@H](CO)[C@H](O)[C@H](OCc5cc6ccc(OC)cc6oc5=O)[C@H]4O)[C@@H]3O)c(=O)oc2c1

A.
7.04
5.85
6.72

Summary for this molecule, O=C(N[C@H]1[C@@H](O)[C@@H](CO)O[C@@H](S[C@@H]2O[C@H](CO)[C@H](O)[C@H](NC(=O)c3ccc4ccccc4c3)[C@H]2O)[C@@H]1O)c1ccc2ccccc2c1 : pKd is 6.80

* * *

Test system: Galectin-4 (Homo sapiens, UniProt P56470)
Sequence (P56470 whole entry): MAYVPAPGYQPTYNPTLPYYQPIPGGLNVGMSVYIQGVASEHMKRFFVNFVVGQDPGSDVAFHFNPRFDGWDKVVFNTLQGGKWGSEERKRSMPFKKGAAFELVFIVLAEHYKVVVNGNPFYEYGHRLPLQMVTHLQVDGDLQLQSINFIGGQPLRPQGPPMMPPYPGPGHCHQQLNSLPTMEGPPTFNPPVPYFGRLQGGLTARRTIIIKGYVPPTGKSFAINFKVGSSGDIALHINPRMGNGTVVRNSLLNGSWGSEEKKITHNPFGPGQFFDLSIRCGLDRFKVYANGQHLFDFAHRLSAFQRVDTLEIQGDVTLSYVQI
Assay remarks: Competitive binding affinity to recombinant human galectin-4 N-terminal after 5 mins in presence of fluorescent probe 3,3'-dideoxy-3-[4-(fluorescein-5-yl-carbonylaminomethyl)-1H-1,2,3-triazol-1-yl]-3'-(3,5-dimethoxy-benzamido)-1,1'-sulfanediyl-di-beta-D-galactopyranoside by fluorescence polarization assay
I'd appreciate it if you could supply pKd values for the items below.
Answers are plain numbers, as −log10 of the molar value.

With Galectin-4 (Homo sapiens, UniProt P56470) as the test system, COc1ccc2cc(CO[C@H]3[C@@H](O)[C@@H](CO)O[C@@H](S[C@@H]4O[C@H](CO)[C@H](O)[C@H](OCc5cc6ccc(OC)cc6oc5=O)[C@H]4O)[C@@H]3O)c(=O)oc2c1 showed pKd of 3.85

// switching to the query molecule
With Galectin-4 (Homo sapiens, UniProt P56470) as the test system, O=c1oc2ccccc2cc1CO[C@H]1[C@@H](O)[C@@H](CO)O[C@@H](S[C@@H]2O[C@H](CO)[C@H](O)[C@H](OCc3cc4ccccc4oc3=O)[C@H]2O)[C@@H]1O showed pKd of 4.39

* * *

Test system: Galectin-3 (Homo sapiens, UniProt P17931, K176L)
Sequence (P17931 2-250 K176L limits assumed): as the sequence (P17931 2-250 R186K limits assumed) above, with K175L, K185R counted along it
Assay remarks: Competitive binding affinity to recombinant human galectin-3 K176L mutant after 5 mins in presence of fluorescent probe beta-D-galactopyranosyl(1-4)-2-acetamido-2-deoxy-beta-D-glucopyranosyl(1-3)-beta-D-galactopyranosyl(1-4)-(N1-fluorescein-5-yl-carbonylaminomethylcarbonyl)-beta-D-glucopyranosylamine by fluorescence polarization assay
Measure: pKd
Answers are plain numbers, as −log10 of the molar value.

Summary for this compound, O=c1oc2ccccc2cc1CO[C@H]1[C@@H](O)[C@@H](CO)O[C@@H](S[C@@H]2O[C@H](CO)[C@H](O)[C@H](OCc3cc4ccccc4oc3=O)[C@H]2O)[C@@H]1O : pKd is 6.57

* * *

I'd appreciate it if you could supply Kd values for the items below.
Test system: Galectin-7 (Mus musculus)
Sequence (O54974 whole entry): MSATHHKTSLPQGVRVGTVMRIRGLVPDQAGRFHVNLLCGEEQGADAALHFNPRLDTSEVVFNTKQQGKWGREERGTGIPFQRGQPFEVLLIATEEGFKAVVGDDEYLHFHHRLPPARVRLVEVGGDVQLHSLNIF
Assay remarks: Competitive binding affinity to recombinant mouse galectin-7 after 5 mins in presence of fluorescent probe beta-D-galactopyranosyl(1-4)-2- acetamido-2-deoxy-beta-D-glucopyranosyl(1-3)-beta-D-galactopyranosyl(1-4)-(N1-fluorescein-5-yl-carbonylaminomethylcarbonyl)-beta-D-glucopyranosylamine by fluorescence polarization assay
Numbers only, in µM.

Some solved cases for reference:
Summary for this molecule, O=c1oc2ccccc2cc1CO[C@H]1[C@@H](O)[C@@H](CO)O[C@@H](S[C@@H]2O[C@H](CO)[C@H](O)[C@H](OCc3cc4ccccc4oc3=O)[C@H]2O)[C@@H]1O : Kd is 5

Summary for this molecule, O=C(N[C@H]1[C@@H](O)[C@@H](CO)O[C@@H](S[C@@H]2O[C@H](CO)[C@H](O)[C@H](NC(=O)c3ccc4ccccc4c3)[C@H]2O)[C@@H]1O)c1ccc2ccccc2c1 : Kd is 1.7

Summary for this molecule, O=c1oc2ccc(Cl)cc2cc1CO[C@H]1[C@@H](O)[C@@H](CO)O[C@@H](S[C@@H]2O[C@H](CO)[C@H](O)[C@H](OCc3cc4cc(Cl)ccc4oc3=O)[C@H]2O)[C@@H]1O : Kd is 60

// switching to the query molecule
Summary for this molecule, COc1ccc2cc(CO[C@H]3[C@@H](O)[C@@H](CO)O[C@@H](S[C@@H]4O[C@H](CO)[C@H](O)[C@H](OCc5cc6ccc(OC)cc6oc5=O)[C@H]4O)[C@@H]3O)c(=O)oc2c1 : Kd is 34
